Provenance of the data: ChEMBL document CHEMBL1140830

This section lists Kd readings for Somatostatin receptor type 2 (Rattus norvegicus).
Numbers only; they are read as µM.

[[record]]
smilestext = "O=C([C@H]1CN[C@@H]2Cc3c(Br)[nH]c4cccc(c34)[C@H]2C1)N1CCN(c2ccccn2)CC1"
measurementkind = "Kd"
unitspec = "µM"
reportedresult = 7.94

[[record]]
smilestext = "CN1C[C@@H](C(=O)N2CCN(c3ccc4nonc4c3)CC2)C[C@H]2c3cccc4[nH]c(Br)c(c34)C[C@@H]21"
measurementkind = "Kd"
unitspec = "µM"
reportedresult = 12.6

[[record]]
smilestext = "CCN1C[C@H](C(=O)N2CCN(c3ccc(F)c(F)c3)CC2)C[C@@H]2c3cccc4[nH]c(Br)c(c34)C[C@H]21"
measurementkind = "Kd"
unitspec = "µM"
reportedresult = 13.2


Note: attention shifts to another entry.
Q: Lab note: need Kd with Somatostatin receptor type 2 (Rattus norvegicus) for entry `CCn1c(N2CCN(C(=O)[C@@H]3C[C@@H]4c5cccc6[nH]c(Cl)c(c56)C[C@H]4N(C)C3)CC2)cccc1=O` , please look it up.
Sequence (P30680 whole entry): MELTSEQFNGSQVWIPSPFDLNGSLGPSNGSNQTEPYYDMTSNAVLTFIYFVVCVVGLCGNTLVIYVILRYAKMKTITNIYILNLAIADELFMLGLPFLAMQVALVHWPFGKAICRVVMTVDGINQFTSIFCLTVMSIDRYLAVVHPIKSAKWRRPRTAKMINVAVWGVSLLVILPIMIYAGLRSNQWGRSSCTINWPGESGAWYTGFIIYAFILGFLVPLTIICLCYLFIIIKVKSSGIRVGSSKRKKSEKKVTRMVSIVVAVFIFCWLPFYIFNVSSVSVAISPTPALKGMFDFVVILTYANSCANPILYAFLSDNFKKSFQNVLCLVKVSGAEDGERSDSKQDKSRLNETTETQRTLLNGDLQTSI
Result: 12
